Source: paper PMC4336329

Parameter hERG current change (%, negative = inhibition) at 10uM: see the listing below.
# tested_on: human ether-à-go-go-related gene (hERG) potassium channel (human, UniProt Q12809)
# Sequence (Q12809 whole entry, looked up): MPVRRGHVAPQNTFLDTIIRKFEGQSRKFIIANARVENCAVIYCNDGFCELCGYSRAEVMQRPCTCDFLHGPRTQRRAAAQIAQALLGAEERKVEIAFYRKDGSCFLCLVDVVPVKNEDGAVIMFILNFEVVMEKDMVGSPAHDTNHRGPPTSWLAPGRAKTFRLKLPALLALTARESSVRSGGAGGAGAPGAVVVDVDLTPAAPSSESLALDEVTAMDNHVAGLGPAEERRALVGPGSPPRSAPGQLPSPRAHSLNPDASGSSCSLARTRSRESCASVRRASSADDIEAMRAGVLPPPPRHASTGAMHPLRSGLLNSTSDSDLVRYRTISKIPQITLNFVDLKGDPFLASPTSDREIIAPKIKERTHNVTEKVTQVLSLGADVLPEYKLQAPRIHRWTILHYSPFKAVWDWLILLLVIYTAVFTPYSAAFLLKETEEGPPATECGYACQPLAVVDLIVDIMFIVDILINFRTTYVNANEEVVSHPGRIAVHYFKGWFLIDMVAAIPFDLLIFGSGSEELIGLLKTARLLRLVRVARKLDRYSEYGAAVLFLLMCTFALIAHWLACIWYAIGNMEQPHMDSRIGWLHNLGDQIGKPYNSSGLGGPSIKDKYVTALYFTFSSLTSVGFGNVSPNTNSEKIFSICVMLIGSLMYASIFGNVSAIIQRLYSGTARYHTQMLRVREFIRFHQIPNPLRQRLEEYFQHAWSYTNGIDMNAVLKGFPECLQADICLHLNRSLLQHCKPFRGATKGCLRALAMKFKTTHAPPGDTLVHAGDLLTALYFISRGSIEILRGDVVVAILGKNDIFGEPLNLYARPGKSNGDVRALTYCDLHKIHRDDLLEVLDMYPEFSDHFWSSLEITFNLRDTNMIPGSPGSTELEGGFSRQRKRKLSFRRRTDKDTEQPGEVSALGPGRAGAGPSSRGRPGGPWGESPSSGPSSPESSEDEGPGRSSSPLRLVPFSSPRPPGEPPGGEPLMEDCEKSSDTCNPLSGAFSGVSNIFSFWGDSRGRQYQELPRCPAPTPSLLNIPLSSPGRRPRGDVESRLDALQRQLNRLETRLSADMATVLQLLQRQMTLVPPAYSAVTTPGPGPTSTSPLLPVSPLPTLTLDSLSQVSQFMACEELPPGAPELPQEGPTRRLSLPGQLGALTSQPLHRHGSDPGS
# method_description: primary screen, population patch clamp on CHO cells stably expressing hERG; higher = less effect of the substance;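 also: peak tail current of the secondary pulse compared with the same well before compound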
The campaign covered roughly 310,000 compounds. About 14,000 (4.5%) showed an effect of 50% or more. Effects have a minus sign here. The entries come from a sample that favours strong results as a whole.
# unit: % | format: bare number

Please indicate hERG current change (%, negative = inhibition) at 10uM recorded for "CC(=O)NN1C(=O)/C(=C\c2ccc(Cl)cc2)SC1=S" 0.662

Please indicate hERG current change (%, negative = inhibition) at 10uM recorded for "O=C1C=C(c2cc3ccccc3s2)C[C@@H](c2ccc(F)cc2)C1" 5.01

Please indicate hERG current change (%, negative = inhibition) at 10uM recorded for O=C(NC1CC2CCCC(C1)N2C(=O)Nc1ccccc1)C1CC1 (centres unmarked) 6.44

Please indicate hERG current change (%, negative = inhibition) at 10uM recorded for "COc1nc(N/N=C/c2ccccc2F)nc(N2CCCCC2)n1" -15.6

Please indicate hERG current change (%, negative = inhibition) at 10uM recorded for "CCN(CCNC(=O)C1CCN(S(C)(=O)=O)CC1)c1ccccc1" -1.8

Please indicate hERG current change (%, negative = inhibition) at 10uM recorded for Cc1ccc(C(C)(C)NC(=O)C2CCC(=O)N(CC3CCCCC3)C2)cc1 (centres unmarked) 3.82

Please indicate hERG current change (%, negative = inhibition) at 10uM recorded for "CCN(CCNC(=O)C1CCN(Cc2nc(-c3ccc(Cl)cc3)oc2C)CC1)c1ccccc1" -65.9

Please indicate hERG current change (%, negative = inhibition) at 10uM recorded for CSCCOC(=O)c1[nH]c2c(c1C)C(=O)CC(c1ccco1)C2 (centres unmarked) -1.18

* * *

Parameter hERG current change (%, negative = inhibition) at 10uM: see the listing below.
# tested_on: human ether-à-go-go-related gene (hERG) potassium channel (human, UniProt Q12809)
# method_description: primary screen, population patch clamp on CHO cells stably expressing hERG; higher = less effect of the substance
Hit rate of the full screen: of about 310,000 compounds, about 14,000 (4.5%) showed an effect of 50% or more. The effect is printed as a negative number. Shown is part of a subset that was picked to be rich in strong results.
# unit: % | format: bare number

{"compound": "O=C(CCSc1ccc(F)cc1)Nc1ccc(-n2cnnn2)cc1", "tested_on": "human ether-à-go-go-related gene (hERG) potassium channel (human, UniProt Q12809)", "unit_text": "%", "readout_value": -26.4}

Please indicate hERG current change (%, negative = inhibition) at 10uM recorded for CN1C(=O)NC(c2ccc(O)cc2)C2=C1CN(c1cccc3ccccc13)C2=O (centres unmarked) -11.8

Please indicate hERG current change (%, negative = inhibition) at 10uM recorded for "COc1ccc(NC(=O)CSc2nc3c(sc4ccccc43)c(=O)n2CCCN2CCCC2)cc1" -30.8

Please indicate hERG current change (%, negative = inhibition) at 10uM recorded for "COCCn1c(SCC(=O)Nc2cccc(OC)c2)nc2c(oc3ccccc32)c1=O" -42.2

Please indicate hERG current change (%, negative = inhibition) at 10uM recorded for "COCc1nnc(NC(=O)c2ccc(S(=O)(=O)N(CC(C)C)CC(C)C)cc2)o1" -7.19

Please indicate hERG current change (%, negative = inhibition) at 10uM recorded for "Cc1ccc(-c2noc(CCC(=O)NCCCN3CCN(c4ccc(F)cc4)CC3)n2)cc1" -66.8

Please indicate hERG current change (%, negative = inhibition) at 10uM recorded for "COc1cc(C(=O)Nc2cccnc2)cc(OC)c1OC" 16.3

Please indicate hERG current change (%, negative = inhibition) at 10uM recorded for "COc1ccc(-c2noc(CCC(=O)NCCCN3CCN(c4ccccc4F)CC3)n2)cc1" -61

Please indicate hERG current change (%, negative = inhibition) at 10uM recorded for "CCN(CC)CCn1c(SCC(=O)Nc2cccc(OC)c2)nc2c(sc3ccccc32)c1=O" -69.2

Please indicate hERG current change (%, negative = inhibition) at 10uM recorded for "Cc1ccc(OCc2n[nH]c(=S)n2C2CCCCC2)cc1" 21

Please indicate hERG current change (%, negative = inhibition) at 10uM recorded for "COc1cccc(NC(=O)CSc2nc3c(sc4ccccc43)c(=O)n2CCCN2CCCC2)c1" -69.8

Please indicate hERG current change (%, negative = inhibition) at 10uM recorded for "Cc1ccc(C)c(N2N=C(C(=O)Nc3ccccc3N3CCCC3)CCC2=O)c1" 3.97

* * *

# tested_on: human ether-à-go-go-related gene (hERG) potassium channel (human)
# method_description: primary screen, population patch clamp on CHO cells stably expressing hERG; higher = less effect of the substance
The campaign covered roughly 310,000 compounds. About 14,000 (4.5%) showed an effect of 50% or more. The effect is printed as a negative number. The sample as a whole holds a higher share of strong results than the screen did.
measured_quantity: hERG current change (%, negative = inhibition) at 10uM (%)
# unit: % | format: bare number

Please review the following examples before continuing.
{"compound": "Cn1c(SCC(=O)N2CCN(c3ccccc3)CC2)nnc1-c1c[nH]c2ccccc12", "readout_value": -50.5}
{"compound": "CCOP(=S)(OCC)SCC(=O)NC(C(=O)O)C(C)C (centres unmarked)", "readout_value": 7.13}
{"compound": "CCOc1ccc(N(CC(=O)Nc2ccc(OC)cc2)S(=O)(=O)c2c(C)[nH]c(=O)[nH]c2=O)cc1", "readout_value": 1.99}

Please indicate hERG current change (%, negative = inhibition) at 10uM recorded for O=C1N/C(=N\N=C\c2cccs2)SC1Cc1ccc(Cl)c(Cl)c1 (centres unmarked) 16.1

Please indicate hERG current change (%, negative = inhibition) at 10uM recorded for "COc1cccc(CC(=O)Nc2nc3ccccc3[nH]2)c1" 10.7

Please indicate hERG current change (%, negative = inhibition) at 10uM recorded for "CCn1c(SCC(=O)N2CCN(c3ccccc3)CC2)nnc1-c1c[nH]c2ccccc12" -53.6

Please indicate hERG current change (%, negative = inhibition) at 10uM recorded for "COc1cc(/C=N\NC(=O)CNC(=O)C(c2ccccc2)c2ccccc2)ccc1O" -25.7

Please indicate hERG current change (%, negative = inhibition) at 10uM recorded for "Cn1c(SCC(=O)N2CCOCC2)nnc1-c1ccncc1" 16.3

Please indicate hERG current change (%, negative = inhibition) at 10uM recorded for "COc1ccc(/C=N/NC(=O)CCN2CCN(c3ccccc3)CC2)c(OC)c1OC" -3.73

Please indicate hERG current change (%, negative = inhibition) at 10uM recorded for "CCCCOC(=O)Nc1nc2ccc([N+](=O)[O-])cc2s1" 15.1

Please indicate hERG current change (%, negative = inhibition) at 10uM recorded for Cc1ccc(S(=O)(=O)NCC(=O)N(CC(=O)NCC2CCCO2)Cc2ccc(Cl)cc2)cc1 (centres unmarked) -11

Please indicate hERG current change (%, negative = inhibition) at 10uM recorded for "CC(C)OC(=O)CCCNc1ccc([N+](=O)[O-])cc1[N+](=O)[O-]" -41.4

Please indicate hERG current change (%, negative = inhibition) at 10uM recorded for "CCCN(CC(=O)Nc1ccccc1C)C(=O)COc1c(C)cccc1C" -4.72

Please indicate hERG current change (%, negative = inhibition) at 10uM recorded for "COc1cc(/C=N/NC(=O)CCN2CCN(C(c3ccccc3)c3ccccc3)CC2)ccc1O" -78.7

Please indicate hERG current change (%, negative = inhibition) at 10uM recorded for "CCCCOC(=O)CCCc1ccc([N+](=O)[O-])cc1[N+](=O)[O-]" -52

Please indicate hERG current change (%, negative = inhibition) at 10uM recorded for "COc1ccc(NC(=O)c2c(C)noc2-c2snnc2C)cc1" -1.51

Please indicate hERG current change (%, negative = inhibition) at 10uM recorded for "CCOC(=O)CCCNc1ccc([N+](=O)[O-])cc1[N+](=O)[O-]" -13.3

Please indicate hERG current change (%, negative = inhibition) at 10uM recorded for "CCOC(=O)CSc1nnc(-c2c[nH]c3ccccc23)n1CC" -10.3

Please indicate hERG current change (%, negative = inhibition) at 10uM recorded for "Cn1c(SCC(=O)N2CCCc3ccccc32)nnc1-c1c[nH]c2ccccc12" -10.2

Please indicate hERG current change (%, negative = inhibition) at 10uM recorded for "O=C(CNC(=O)C(c1ccccc1)c1ccccc1)N/N=C/c1ccc(O)cc1O" -4.68

* * *

# tested_on: human ether-à-go-go-related gene (hERG) potassium channel (human, UniProt Q12809)
# method_description: primary screen, population patch clamp on CHO cells stably expressing hERG; higher = less effect of the substance
Among all 310,000 compounds or so, about 14,000 (4.5%) showed an effect of 50% or more. The effect is printed as a negative number. What follows is part of a selection rich in strong results, with near analogues and random picks from the rest.
Response key: 1.0 means hERG current change (%, negative = inhibition) at 10uM >= 10%; 0.0 means hERG current change (%, negative = inhibition) at 10uM < 10%.

{"compound_smiles": "Cc1ccc2oc(-c3ccccc3)nc2c1", "group_label": 1.0}

We now examine a further compound.
Kindly determine if hERG current change (%, negative = inhibition) at 10uM recorded for "Cc1ccc(NC(=O)NCc2ccccn2)cc1" is above or exactly 10%. 1.0
